System: HCC-2998 colon
Test details: NCI-60 one-dose screen, 48 h (100 = growth as untreated, 0 = no growth, -100 = all killed)
Condition parameters: 10 µM unless noted
This is part of a sample that, as a whole, favours compounds with a hit. Of some 83,000 tested, about 20% had one in any assay.
Label Met when growth is strictly below 70%; at or above that, label Not met.

Q: Find out if reported growth for "CN(C)CCC(=O)c1ccc([N+](=O)[O-])cc1" is less than 70%
Result: Not met

Q: Can you check "O=C(NNc1nc2c(F)cccc2n2cccc12)c1cnccn1" next?
Result: Met

Q: Next record, please: "Oc1ccc(C2c3ccccc3Oc3ccccc32)c2cccnc12"
Result: Met

Q: Follow-up entry: "O=C(CSc1nc2ccccc2[nH]1)NCc1ccccc1"
Result: Not met

Q: Repeat with "C=C(C)[C@@H]1CC[C@]2(C(=O)N3CCN(C)CC3)CC[C@]3(C)[C@H](CC[C@@H]4[C@@]5(C)CC[C@H](OCCC#N)C(C)(C)[C@@H]5CC[C@]43C)[C@@H]12"
Result: Not met

Q: // repeat for CCN(CC)CCCC(C)Nc1cc(O)cc2cccnc12 (stereo not given) and report
Result: Not met

Q: What do you have for "CCCCCCNC(=O)Oc1ccc(/C(=C(\C)c2ccccc2)c2ccc(OCCN3CCCCC3)cc2)cc1" ?
Result: Not met

Q: Note, next up: COc1cc2c(c(OC)c1OC)CCC(c1cccc(NC(=O)c3cccc(Br)c3)c1)O2 (stereo not given)
Result: Not met

Q: Then what about the compound "CN1CCN(C(=O)[C@]23CCC(C)(C)C[C@H]2C2=CC[C@@H]4[C@@]5(C)C/C(=C/c6ccncc6)C(=O)C(C)(C)[C@@H]5CC[C@@]4(C)[C@]2(C)CC3)CC1" ?
Result: Met

Q: Now this one: "Fc1ccc(-c2cn3c(nc4ccccc43)c(-c3ccccc3)n2)cc1"
Result: Not met

Q: Then what about the compound "O=C(CCN1CCCC1)Nc1ccc2c(NCCc3ccccc3)c3ccccc3nc2c1" ?
Result: Met

Q: Note, next up: "COc1cc(-c2cc(-c3ccc(N(C)C)cc3)nc(N3CCOCC3)c2C#N)cc(OC)c1OC"
Result: Met

Q: Also need "CCCCOc1ccc(/C(C)=N/Nc2cc(C)nc3ccc(Br)cc23)cc1" , thanks.
Result: Met

Q: Do the same for "COc1cc(F)c(/C=C/c2cc(/C=C/c3cc(OC)c(OC)cc3F)on2)cc1OC" please
Result: Not met

Q: What do you get for "C#CCNC(=O)[C@]1(C)CC[C@]2(C)CC[C@@H]3C(=CC[C@H]4[C@@]3(C)CC[C@H]3C(C)(C)C(=O)CC[C@]43C)[C@@H]2C1" ?
Result: Not met

Q: Input "COC1=CC(=O)c2ccccc2C1=O"
Result: Not met

Q: Same again, this time with "O=C(Nc1ncc(Cc2cc(Cl)ccc2Cl)s1)c1cccs1"
Result: Met

---

System: NCI/ADR-RES ovarian
Test details: NCI-60 one-dose screen, 48 h
Condition parameters: 10 µM unless noted
Compounds without any hit were thinned out: in the full panel of roughly 83,000, 20% have a hit. Calls of active or inactive are those of the source. How the source made its calls: active means growth percent below 10; inactive means the rest.
Return exactly one item of active, inactive

Q: Dear all, I need the recorded test outcome for "CCCCOc1ccc(/C=N/Nc2cc(C)nc3ccc(Br)cc23)cc1" , thank you.
Result: inactive

Q: Also "COc1ccc(/C=C(\C#N)n2nc3cccc(F)c3n2)cc1" ?
Result: inactive

Q: Next entry: COc1cc(/C=N/NC(=O)c2cnn3c2NC(c2ccccc2)C3)ccc1OCc1ccccc1 (stereo not given)
Result: inactive

Q: Note, next up: "O=C1Nc2ccccc2/C1=C\c1c(-c2ccccc2)nc2ccccn12"
Result: active

Q: Same read-out for CN1CCC(=C(c2ccccc2)c2ccccc2)C(c2ccccc2)C1 (stereo not given) ?
Result: inactive

Q: And the next one, "CNCCn1c(=O)c2cc(OC)c(OC)cc2c2ccc3cc4c(cc3c21)OCO4" ?
Result: active

Q: Now this one: "O=C(/C=C(O)/C=C/c1ccc(SC(F)(F)F)cc1)/C=C/c1ccc(SC(F)(F)F)cc1"
Result: inactive

Q: "CCCN1[C@@H]2CC[C@H]1/C(=C\c1ccc(OC)c(OC)c1)C(=O)/C2=C/c1ccc(OC)c(OC)c1" , same question.
Result: inactive

Q: Try the compound "N/C(=N\C(N)=N\c1nc2ccccc2s1)c1cccc(Cl)c1"
Result: inactive

Q: Same thing, different compound: "CCNc1nc2cc(Nc3ccnc4cc(Cl)ccc34)ccc2o1"
Result: inactive

Q: Repeat for the following compound: "CC(=O)Nc1cccc(-c2ccc3c(c2)NC(=O)/C3=C\c2ccc[nH]2)c1"
Result: inactive

Q: Also CC(C)(C)CC(C)(C)n1nnnc1C(NC12CC3CC(CC(C3)C1)C2)c1ccccc1 (stereo not given) ?
Result: inactive

Q: Now the same for "Nc1c(S(=O)(=O)O)cc2c3c(cccc13)C(=O)OC2=O"
Result: inactive

Q: Would you mind doing COc1ccc2c(c1)C(=O)CC(c1ccccc1OC)O2 (stereo not given) as well?
Result: inactive

Q: For N#CC1C(C#N)C(C(=O)c2ccc(Br)cc2)N2c3ccccc3C=CC12 (stereo not given) then?
Result: inactive

Q: Try this compound next: "Cn1c2ccccc2c2c3c(c4c5ccccc5n(C)c4c21)C(=O)OC3"
Result: inactive

Q: "Cc1ccc(-c2[nH][nH]c(=O)c2-c2nc3ccccc3s2)cc1" ?
Result: inactive

Q: Please give the result for "O=C(CCN1CCCC1)Nc1ccc2c(NCCCCc3ccccc3)c3ccccc3nc2c1" too.
Result: inactive

Q: Now this one: "COc1cccc(-c2nc3occn3c2-c2ccnc(NCCCNS(=O)(=O)c3ccc(C(F)(F)F)cc3)n2)c1"
Result: inactive

Q: Now this one: "Nc1c(C(=O)Nc2cccc3cnccc23)sc2nc3c(cc12)C(=O)CCC3"
Result: inactive

Q: // same read-out, input: CCN1C(=O)N(CC)C2Nn3c(s/c(=C\c4ccc(OC)cc4)c3=O)=NC21 (stereo not given)
Result: inactive

Q: And for COc1ccc(C(=O)C2C(C#N)C(C#N)C3c4ccccc4C=CN23)cc1 (stereo not given) ?
Result: inactive

Q: How about COc1cc(NC(C)CCCNC(=O)CCC(=O)NCCCNCCCCCCCCCCNCCCNC(=O)CCC(=O)NCCCC(C)Nc2cc(OC)cc3cccnc23)c2ncccc2c1 (stereo not given) ?
Result: inactive

Q: Check "Cc1ccccc1NS(=O)(=O)c1cccc(C(=O)Nc2ccc(Br)cc2)c1" too.
Result: inactive

Q: Try the compound Cn1cc(CC2CC(=O)N(c3ccccc3)C2=O)sc1=NC(=O)c1ccccc1 (stereo not given)
Result: inactive

Q: Okay, and "Cc1nc2sccn2c1-c1cn2ccsc2n1" ?
Result: inactive

Q: Moving on to the next compound: CC(Oc1ccc(C(=O)O)cc1C(F)(F)F)c1ccc(Oc2ccccc2)cn1 (stereo not given)
Result: inactive

Q: Another: "COc1cc(/C=C/c2cc(O)c(C(C)=O)c(O)c2)cc2c1O[C@]1(C)CC[C@@H](O)C(C)(C)[C@H]1C2"
Result: inactive

Q: // repeat for "Cc1cc(C(=O)/C=C/c2ccc[nH]2)ccc1-n1ccc(C(F)(F)F)n1" and report
Result: inactive

Q: Try the compound "O=C(Nc1ccc(F)cc1)Nc1ccc(NC(=O)c2cc(Cl)nc3ccccc23)cc1"
Result: inactive

Q: Let us now turn to "COc1cc(-c2cc(-c3ccc(N(C)C)cc3)nc(N3CCOCC3)c2C#N)cc(OC)c1OC"
Result: active

Q: Ok, now "CCOc1ccc(Nc2nc(-c3ccc4c(c3)NC(=O)CO4)cs2)cc1"
Result: inactive

Q: Also check "O=C(Nc1ncc(Cc2cc(Cl)ccc2Cl)s1)c1cccs1"
Result: inactive

Q: Consider next the compound "O=C1c2c(c3c4cccc(F)c4[nH]c3c3ccc4ccccc4c23)C(=O)N1O" in the same way.
Result: inactive

Q: Try this compound next: "Cc1ccc(/C=N/NC(=O)CSc2nc3ccccc3c(=O)n2Cc2ccc(S(N)(=O)=O)cc2)cc1"
Result: inactive

Q: How about this compound: "O=C(C[n+]1cccc2ccccc21)c1ccc(O)c(O)c1"
Result: inactive

Q: Similarly, O=C(c1nc2ccccc2[nH]1)C1C(c2ccc(Cl)cc2)C2CC3CCCC[C@H]3N2[C@@]12C(=O)Nc1cc(Cl)ccc12 (stereo not given in full) ?
Result: inactive

Q: Moving on to "COc1ccc(C(=O)c2cc(C)c(OC)c(C)c2)c(OC)c1NC(C)=O"
Result: active

Q: Then N#CC1=C(N)Oc2c(ccc3ccccc23)C1c1ccccc1Cl (stereo not given) ?
Result: active

Q: // next record "C=C1C(=O)O[C@H]2[C@H]1CC/C(CNC(=O)/C=C/c1ccccc1)=C\CC[C@@]1(C)O[C@@H]21"
Result: inactive
